Test system: NCI-H522 lung
Assay: NCI-60 one-dose screen, 48 h
Settings: 10 µM unless noted
The panel holds about 83,000 compounds, 20% with a hit somewhere; the sample as a whole holds those more often. Activity calls are given as the source filed them. Rule for the calls: active = growth percent below 10; inactive = the rest.
Outcomes: active, inactive

# structure_smiles_string, classification
rows = [
    ("O=C(NCCNc1cc(-c2cn(-c3ccccc3)nc2-c2cccc(O)c2)ccn1)Nc1cc(C(F)(F)F)cc(C(F)(F)F)c1", "inactive"),
    ("CN1CCN(Cc2ccc(NC(=O)c3cncc(C#Cc4cnc5ccc(N6CCOCC6)nn45)c3)cc2C(F)(F)F)CC1", "active"),
    ("CN(C)CCCOc1ccc(C(=C(c2ccccc2)C2CCCC2)c2ccc(OCCCN(C)C)cc2)cc1", "active"),
    ("C#CCn1cc(/C=N/Nc2nc(-c3ccc(Br)cc3)cs2)c2ccccc21", "inactive"),
    ("Cc1csc(/N=C(N)/N=C(\\N)c2cccc(Br)c2)n1", "inactive"),
]

###

Tested on: TK-10 renal
Experiment: NCI-60 one-dose screen, 48 h
Settings: 10 µM unless noted
Compounds without any hit were thinned out: in the full panel of roughly 83,000, 20% have a hit. Calls of active or inactive are those of the source. The calls were made as follows: active = growth percent below 10; inactive = the rest.
Outcomes: active, inactive

# compound, classification
data = [
    ("NC(=S)n1c(=O)n(-c2cccc(C(F)(F)F)c2)c(=O)c2cc(-c3ccc(F)cc3F)ccc21", "active"),
    ("O=c1[nH][nH]c(-c2ccc(F)cc2)c1-c1nc2ccccc2s1", "inactive"),
    ("Cc1cc2nc3c4cc(C#N)ccc4n(CCN(C)C)c3nc2cc1C", "active"),
    ("Cc1c(C(=O)/C=C/c2ccc(Cl)cc2)nnn1-c1ccc2oc(=O)ccc2c1", "inactive"),
    ("CC1=Cc2ccccc2OC12C=Cc1ccccc1O2 (stereo not given)", "inactive"),
]

###

System: NCI/ADR-RES ovarian
Experiment: NCI-60 one-dose screen, 48 h
Conditions: 10 µM unless noted
Compounds without any hit were thinned out: in the full panel of roughly 83,000, 20% have a hit. Calls of active or inactive are those of the source. How the source made its calls: active means growth percent below 10; inactive means the rest.
Outcomes: yes (1) for active, no (0) for inactive

# compound, classification
data = [
    ("CCOC(=O)c1c(NC(=O)c2ccc(C(F)(F)F)cc2)sc2c(CN3CCN(C)CC3)c(O)ccc12", "yes (1)"),
    ("CCOC(=O)c1ccc(NC2=CC(=O)C(C)=C(C)C2=O)cc1", "no (0)"),
    ("O=C1c2ccccc2C23C(=C(c4cncnc4)c4ccccc42)CCCN13 (stereo unspecified)", "no (0)"),
    ("C#Cc1nc(C(=O)NCCCCCCC(=O)NO)cs1", "yes (1)"),
    ("Cc1ccc(NC(=O)/C=C/c2ccc(OCCCOc3ccc4c(C)cc(=O)oc4c3)cc2)cc1", "no (0)"),
    ("CC1(C)C=Cc2cc(/C(N)=N/C(N)=N/c3nc4ccccc4s3)ccc2O1", "no (0)"),
]

###

Entries and their measured growth follow.
System: M14 melanoma
Assay: NCI-60 one-dose screen, 48 h (100 = growth as untreated, 0 = no growth, -100 = all killed)
Details: 10 µM unless noted
Compounds without any hit were thinned out: in the full panel of roughly 83,000, 20% have a hit.
measure_name: growth (%)

# structure_smiles_string, unit_abbrev, experimental_value
records = [
    ("CC1=C(C)C(=O)C(Nc2ccc3c(c2)OCCO3)=C(Br)C1=O", "%", 106),
    ("CCN(CC)c1ccc(/C=N/NC(=O)c2ccc(NS(C)(=O)=O)cc2)cc1", "%", 0.0523),
    ("C#CCOc1cccc(/C(N)=N/C(N)=N/c2nc3ccccc3s2)c1", "%", 95.8),
    ("O=C(CCCCCCN1CC(=O)N2[C@@H](c3ccc(Cl)s3)c3[nH]c4ccccc4c3C[C@H]2C1=O)NO", "%", 51.8),
    ("Cn1cc(-c2nnc(N)nc2-c2c[nH]c3ccc(F)cc23)c2cc(Br)ccc21", "%", -6.09),
    ("Cn1cc(-c2nc(N)nnc2-c2c[nH]c3ccc(Br)cc23)c2cc(F)ccc21", "%", 102),
    ("CC(C)(C)c1cc(NC(=O)Nc2ccc(-c3cn4c5c(sc4n3)CCc3cn(CCCN4CCCCC4)cc3-5)cc2)no1", "%", -93.6),
    ("NS(=O)(=O)c1ccc(CCn2c(-c3ccc(C(=O)O)cc3)nc(-c3ccccc3)c2-c2ccccc2)cc1", "%", 105),
    ("CSc1ccc(/C(=N/N=C(N)N)c2ccc(F)cc2)cc1", "%", 3.79),
]
